- System: KCNQ2/3 channels (Homo sapiens, UniProt O43525+O43526)
- Test Description: Fluorescence assay using a voltage sensitive dye (fluorimetry)
- Experimental Parameters: CHO-K1 cells expressing KCNQ2/3; voltage-sensitive dye, KCl depolarization; read-out: Fluorimetry EC50/IC50
pEC50: −log10 of the molar value.
Tick met if pEC50 is 6 or greater. Tick not met if pEC50 is less than 6.

Molecule: CCS(=O)(=O)c1cc(N2CCOCC2)cc(C)c1C(=O)NCCCC(C)(C)C [Example 9]
Class Name: not met
//
Molecule: Cc1cc(N2CCCC2)cc(C(F)(F)F)c1C(=O)NCc1cccc(F)c1 [Example 26]
Class Name: met
//
Molecule: Cc1cc(N2CCOCC2)cc(C2CCOC2)c1C(=O)NCc1ccc(Cl)cc1 (stereo not drawn) [Example 37]
Class Name: not met
//
Molecule: Cc1cc(N2CCOCC2)cc(C2CC2)c1C(=O)NCC(O)CC(C)(C)C (stereo not drawn) [Example 32]
Class Name: not met
//
Molecule: CCCc1cc(N2CCOCC2)cc(C)c1C(=O)NCc1ccc(Cl)cc1 [Example 13]
Class Name: met
//
Molecule: CCSc1cc(N2CCOCC2)cc(C)c1C(=O)NCc1ccc(Cl)cc1 [Example 2]
Class Name: met
//
Molecule: Cc1cc(N2CCOCC2)cc(C(C)C)c1C(=O)NCC[C@H](O)C(C)(C)C [Example 31]
Class Name: met
